# Target of assay: PSMA (Homo sapiens, UniProt Q04609)
# Sequence (Q04609 whole entry): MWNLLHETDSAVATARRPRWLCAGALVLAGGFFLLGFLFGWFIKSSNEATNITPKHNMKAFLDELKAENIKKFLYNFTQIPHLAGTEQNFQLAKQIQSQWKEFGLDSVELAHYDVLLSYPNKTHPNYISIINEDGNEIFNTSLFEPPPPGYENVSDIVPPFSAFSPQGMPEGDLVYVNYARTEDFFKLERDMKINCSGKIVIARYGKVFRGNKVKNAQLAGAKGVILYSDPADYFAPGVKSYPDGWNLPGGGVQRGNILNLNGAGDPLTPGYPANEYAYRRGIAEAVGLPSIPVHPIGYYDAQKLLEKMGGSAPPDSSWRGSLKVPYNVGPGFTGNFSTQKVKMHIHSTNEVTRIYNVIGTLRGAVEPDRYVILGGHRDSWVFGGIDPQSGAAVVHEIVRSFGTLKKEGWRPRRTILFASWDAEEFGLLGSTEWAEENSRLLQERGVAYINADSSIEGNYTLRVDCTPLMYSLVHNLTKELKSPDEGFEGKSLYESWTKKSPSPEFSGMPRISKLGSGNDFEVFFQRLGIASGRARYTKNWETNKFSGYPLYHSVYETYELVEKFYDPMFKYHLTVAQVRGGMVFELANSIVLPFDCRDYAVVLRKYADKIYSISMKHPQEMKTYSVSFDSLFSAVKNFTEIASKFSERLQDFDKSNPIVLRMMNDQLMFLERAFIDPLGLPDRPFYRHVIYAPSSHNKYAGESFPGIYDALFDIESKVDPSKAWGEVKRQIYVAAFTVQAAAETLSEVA
# Test name: NAALADase assay
# Assay type: biochemical
# Cond: LNCaP cell extracts; Cheng–Prusoff conversion
pKi: −log10 of the molar value.
Note to self: values exactly at 9 are Y. So pKi at or above 9 is Y, below is N.

Below, 2 compounds whose answers are already recorded.
O=C(O)CCC(NC(=O)NC(CCCCNC(=O)CCCCCCC(=O)NC(CCCCN(Cc1ccccn1)Cc1ccccn1)C(=O)O)C(=O)O)C(=O)O.[Br-].[C-]#[O+].[C-]#[O+].[C-]#[O+].[Re+] (stereo not drawn) [ReL1] = N
O=C(O)CCC(NC(=O)NC(CCCCNC(=O)CCCCCCC(=O)NCCCCC(C(=O)O)N(Cc1ccccn1)Cc1ccccn1)C(=O)O)C(=O)O.[Br-].[C-]#[O+].[C-]#[O+].[C-]#[O+].[Re+] (stereo not drawn) [ReL3] = N

Now examine the next entry.
Dear colleague, could you confirm whether O=C(O)CCC(NC(=O)NC(CCCCN(Cc1ccccn1)Cc1ccccn1)C(=O)O)C(=O)O.[Br-].[C-]#[O+].[C-]#[O+].[C-]#[O+].[Re+] (stereo not drawn) [ReL6] has pKi at or above 9? N
